Values were extracted from patent US4345938A.

# Test system: Sagittaria trifolia
# assay-overview: Field transplant rice test, applied 9 DAT, ST
# Assay type: in vivo
# run-parameters: 216 h, 0.75 Kg/Ha, 3 WAT, read-out: Percent Inhibition, ST
parameter-measured: inhibition at 750 g/ha

CCCOCCN(C(=O)CCl)c1c(CC)cccc1CC	42%
CCCCOc1cccc(CC)c1N(C)C(=O)CCl	43%
CCCCOCN(C(=O)CCl)c1c(CC)cccc1CC	26%
CCCCOCCN(C(=O)CCl)c1c(CC)cccc1CC	38%
CCCCOCN(C(=O)CCl)c1c(C)cccc1C(C)(C)C	32%

====

# System: Eleocharis kuroguwai
# assay-overview: Field transplant rice test, applied 9 DAT, EK
# Assay type: in vivo
# run-parameters: Eleocharis kuroguwai, 216 h, 0.75 Kg/Ha, 3 WAT, read-out: Percent Inhibition, EK
parameter-measured: inhibition at 750 g/ha

CCCCOCN(C(=O)CCl)c1c(C)cccc1C(C)(C)C	75%
CCCOCCN(C(=O)CCl)c1c(CC)cccc1CC	45%
CCCCOCN(C(=O)CCl)c1c(CC)cccc1CC	37%
CCCCOCCN(C(=O)CCl)c1c(CC)cccc1CC	28%
CCCCOc1cccc(CC)c1N(C)C(=O)CCl	83%

====

# Tested on: Eleocharis kuroguwai
# assay-overview: Field transplant rice test, applied 0 DAT, EK
# Assay type: in vivo
# run-parameters: 0 h, 0.375 Kg/Ha, 6 WAT, read-out: Percent Inhibition, EK
Binary classification by inhibition at 375 g/ha, with 7% as an inclusive lower bound for fulfilled; all other cases are not fulfilled.

CCCCOCN(C(=O)CCl)c1c(CC)cccc1CC [Compound A]	fulfilled
CCCOCCN(C(=O)CCl)c1c(CC)cccc1CC [Compound D]	not fulfilled
CCCCOCN(C(=O)CCl)c1c(C)cccc1C(C)(C)C [Compound C]	fulfilled
CCCCOc1cccc(CC)c1N(C)C(=O)CCl [Example 1]	not fulfilled

====

# Tested on: Echinochloa crus-galli
# assay-overview: Field transplant rice test, applied 0 DAT, EC
# Assay type: in vivo
# run-parameters: 0 h, 3.0 Kg/Ha, 2 WAT, read-out: Percent Inhibition, EC
parameter-measured: inhibition at 3000 g/ha (%)

CCCOCCN(C(=O)CCl)c1c(CC)cccc1CC	99
CCCCOCN(C(=O)CCl)c1c(CC)cccc1CC	98
CCCCOCN(C(=O)CCl)c1c(C)cccc1C(C)(C)C	98
CCCCOCCN(C(=O)CCl)c1c(CC)cccc1CC	97
CCCCOc1cccc(CC)c1N(C)C(=O)CCl	98

====

# Test system: Monochoria vaginalis
# assay-overview: Field transplant rice test, applied 0 DAT, MV
# Type: in vivo
# run-parameters: Pontederia vaginalis, 0 h, 0.375 Kg/Ha, 2 WAT, read-out: Percent Inhibition, MV
parameter-measured: inhibition at 375 g/ha (%)

CCCCOc1cccc(CC)c1N(C)C(=O)CCl	98
CCCCOCN(C(=O)CCl)c1c(CC)cccc1CC	98
CCCCOCCN(C(=O)CCl)c1c(CC)cccc1CC	97
CCCCOCN(C(=O)CCl)c1c(C)cccc1C(C)(C)C	100
CCCOCCN(C(=O)CCl)c1c(CC)cccc1CC	90

====

inhibition at 1500 g/ha values for the molecules below.
# System: Rice
# assay-overview: Field transplant rice test, applied 9 DAT, rice injury
# Format: in vivo
# run-parameters: Oryza sativa, 216 h, 1.5 Kg/Ha, 5 WAT, read-out: Percent Inhibition, Rice
parameter-measured: inhibition at 1500 g/ha (%)

CCCCOCCN(C(=O)CCl)c1c(CC)cccc1CC	2
CCCCOCN(C(=O)CCl)c1c(CC)cccc1CC	7
CCCCOCN(C(=O)CCl)c1c(C)cccc1C(C)(C)C	15
CCCCOc1cccc(CC)c1N(C)C(=O)CCl	7
CCCOCCN(C(=O)CCl)c1c(CC)cccc1CC	5
